test.summary: Tmax in rat at 3 mg/kg, po
Assay type: ADME, organism-based
Design: dose 3 mg/kg, route oral
condition.details: in vivo
metric: Tmax (h)

INSERT INTO assay_data (compound, measured_number) VALUES
  ('COC(=O)N[C@H](C(=O)N1CCC[C@H]1C(=O)Nc1ccc([C@@H]2CC[C@@H](c3ccc(NC(=O)[C@@H]4CCCN4C(=O)[C@@H](NC(=O)OC)[C@@H](C)OC)cc3)N2c2ccc(F)cc2)cc1)[C@@H](C)OC', 0.7),
  ('COC(=O)N[C@H](C(=O)N1CCC[C@H]1C(=O)Nc1ccc([C@@H]2CC[C@@H](c3ccc(NC(=O)[C@@H]4CCCN4C(=O)[C@@H](NC(=O)OC)C(C)C)cc3)N2c2ccc(C(F)(F)F)cc2)cc1)C(C)C', 2.2),
  ('COC(=O)N[C@H](C(=O)N1CCC[C@H]1C(=O)Nc1ccc([C@H]2CC[C@H](c3ccc(NC(=O)[C@@H]4CCCN4C(=O)[C@@H](NC(=O)OC)C(C)C)cc3)N2c2ccc(F)cc2)cc1)C(C)C', 1.3),
  ('COC(=O)N[C@H](C(=O)N1CCC[C@H]1C(=O)Nc1ccc([C@H]2CC[C@H](c3ccc(NC(=O)[C@@H]4CCCN4C(=O)[C@@H](NC(=O)OC)[C@@H](C)OC)cc3)N2c2ccc(F)cc2)cc1)[C@@H](C)OC', 0.5),
  ('COC(=O)N[C@H](C(=O)N1CCC[C@H]1C(=O)Nc1ccc([C@H]2CC[C@H](c3ccc(NC(=O)[C@@H]4CCCN4C(=O)[C@@H](NC(=O)OC)C(C)(C)C)cc3)N2c2ccc(F)cc2)cc1)C(C)(C)C', 2.3);

P. COC(=O)N[C@H](C(=O)N1CCC[C@H]1C(=O)Nc1ccc([C@@H]2CC[C@@H](c3ccc(NC(=O)[C@@H]4CCCN4C(=O)[C@@H](NC(=O)OC)C(C)(C)C)cc3)N2c2ccc(C(C)(C)C)cc2)cc1)C(C)(C)C
Q. COC(=O)N[C@H](C(=O)N1CCC[C@H]1C(=O)Nc1ccc([C@H]2CC[C@H](c3ccc(NC(=O)[C@@H]4CCCN4C(=O)[C@@H](NC(=O)OC)[C@H]4CCOC4)cc3)N2c2ccc(F)cc2)cc1)[C@H]1CCOC1
stdin: Please indicate which entry, P or Q , has the lower recorded Tmax value. Write down the label attached to your selection.
stdout: Q

----------
test.summary: Oral bioavailability in rat at 3 mg/kg
Type: ADME, organism-based
condition.details: in vivo
metric: bioavailability (%)

Some solved cases for reference:
INSERT INTO results (compound, metric, readout_unit, measured_number) VALUES
  ('COC(=O)N[C@H](C(=O)N1CCC[C@H]1C(=O)Nc1ccc([C@H]2CC[C@H](c3ccc(NC(=O)[C@@H]4CCCN4C(=O)[C@@H](NC(=O)OC)C(C)C)cc3)N2c2ccc(C(F)(F)F)cc2)cc1)C(C)C', 'bioavailability', '%', 13),
  ('COC(=O)N[C@H](C(=O)N1CCC[C@H]1C(=O)Nc1ccc([C@@H]2CC[C@@H](c3ccc(NC(=O)[C@@H]4CCCN4C(=O)[C@@H](NC(=O)OC)[C@@H](C)OC)cc3)N2c2ccc(F)cc2)cc1)[C@@H](C)OC', 'bioavailability', '%', 14);

P. COC(=O)N[C@H](C(=O)N1CCC[C@H]1C(=O)Nc1ccc([C@H]2CC[C@H](c3ccc(NC(=O)[C@@H]4CCCN4C(=O)[C@@H](NC(=O)OC)[C@@H](C)OC)cc3)N2c2ccc(F)cc2)cc1)[C@@H](C)OC
Q. COC(=O)N[C@H](C(=O)N1CCC[C@H]1C(=O)Nc1ccc([C@@H]2CC[C@@H](c3ccc(NC(=O)[C@@H]4CCCN4C(=O)[C@@H](NC(=O)OC)C(C)C)cc3)N2c2ccc(F)cc2)cc1)C(C)C
R. COC(=O)N[C@H](C(=O)N1CCC[C@H]1C(=O)Nc1ccc([C@@H]2CC[C@@H](c3ccc(NC(=O)[C@@H]4CCCN4C(=O)[C@@H](NC(=O)OC)[C@H]4CCOC4)cc3)N2c2ccc(F)cc2)cc1)[C@H]1CCOC1
S. COC(=O)N[C@H](C(=O)N1CCC[C@H]1C(=O)Nc1ccc([C@H]2CC[C@H](c3ccc(NC(=O)[C@@H]4CCCN4C(=O)[C@@H](NC(=O)OC)[C@H]4CCOC4)cc3)N2c2ccc(F)cc2)cc1)[C@H]1CCOC1
T. COC(=O)N[C@H](C(=O)N1CCC[C@H]1C(=O)Nc1ccc([C@H]2CC[C@H](c3ccc(NC(=O)[C@@H]4CCCN4C(=O)[C@@H](NC(=O)OC)C(C)(C)C)cc3)N2c2ccc(F)cc2)cc1)C(C)(C)C
stdin: Arrange by bioavailability, high to low. Output the labels ranked as instructed.
stdout: T, Q, P, S, R
(T: 39%, Q: 22%, P: 15%, S: 3.2%, R: 1.5%)
